Reference source: patent US20050182242A1

Test system: PI(4)P liposomes
Experiment: Yeast proteome chip probed with PI(4)P liposomes
Conditions: liposome binding signal on yeast proteome chip, Cy3-streptavidin detection

{"MOLECULE": "PAU5: yeast GST-HisX6 fusion protein on proteome chip (protein, UniProt P43575 1-122, looked up, GST-His6 fusion tag, yeast GST-HisX6 fusion protein on proteome chip) Seripauperin-5: MVKLTSIAAGVAAIAAGASAAATTTLSQSDERVNLVELGVYVSDIRAHLAEYYSFQAAHPTETYPVEIAEAVFNYGDFTTMLTGIPADQVTRVITGVPWYSSRLKPAISSALSADGIYTIAN", "PI(4)P": 31.35}
{"MOLECULE": "GPM3: yeast phosphoglycerate mutase, GST-HisX6 fusion (protein, UniProt Q12326 1-303, looked up, GST-His6 tag, yeast phosphoglycerate mutase, GST-HisX6 fusion) Phosphoglycerate mutase 3: MTVTDTFKLFILRHGQSELNSENIFCGWIDAQLTEKGKSQARHSAKLIKQFCDSNNISLPQIGYTSRLIRTQQTMDVILEELGLKHTNYVITTNTNIKEELQDTRFEGSMPVLQTWRLNERHYGAWQGQRKPDILKEYGKEKYMYIRRDYNGKPPKVNLNLEMVQEENDQGSSTGYDFKEPNRHLKYGPEEKANERLPESESLCEVVVRLKPFLNNVVLSTANKISQESCVIVGHGSSVRSLLKVLEGISDEDIKDVDIPNGIPLVIELDRDNYSFVRKFYLDPESAKVNAQMVRDEGFEKNP", "PI(4)P": 85.35}
{"MOLECULE": "BUD32: yeast GST-HisX6 fusion protein on proteome chip (protein, UniProt P53323 1-261, looked up, GST-His6 fusion tag, yeast GST-HisX6 fusion protein on proteome chip) EKC/KEOPS complex subunit …: MTQEFIDKVSSYLTPDVDIAPISQGAEAIVFTTTTHPYLPRAKDSHQKYIIKYRPPKRYRHPQIDQALTKHRTLNESRLLAKLYLIPGLCVPQLIACDPYNGFIWLEFLGEDLPGGHGFSNLKNFLWMHDQDPYSDLVATTLRKVGRQIGLLHWNDYCHGDLTSSNIVLVRDGARWTPHLIDFGLGSVSNLVEDKGVDLYVLERAILSTHSKHAEKYNAWIMEGFEEVYREQGAKGAKKLKEVTKRFEEVRLRGRKRSMLG", "PI(4)P": 666.29}
{"MOLECULE": "FUR1: yeast GST-HisX6 fusion protein on proteome chip (protein, UniProt P18562 1-216, looked up, GST-His6 fusion tag, yeast GST-HisX6 fusion protein on proteome chip) Uracil …: MSSEPFKNVYLLPQTNQLLGLYTIIRNKNTTRPDFIFYSDRIIRLLVEEGLNHLPVQKQIVETDTNENFEGVSFMGKICGVSIVRAGESMEQGLRDCCRSVRIGKILIQRDEETALPKLFYEKLPEDISERYVFLLDPMLATGGSAIMATEVLIKRGVKPERIYFLNLICSKEGIEKYHAAFPEVRIVTGALDRGLDENKYLVPGLGDFGDRYYCV", "PI(4)P": 148.94}
